Target: Peptide 5: Biotin-…-[Tyr(PC)]-acid
Sequence (peptide, as listed by the source): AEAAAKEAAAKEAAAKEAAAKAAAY
Experiment: scFv ELISA
Endpoint name: OD450 (OD450)
Write the answer as a number in OD450, unit excluded.

Please give the measured OD450 for this binder: PcOxP_DB03_F05 (scFv, V domains shown, scFv in periplasmic extract) VH: EVQLLESGGGLVQPGGSLRLSCAASGFTFSDYYMEWVRQAPGKGLEWVAASRNKGNDYTTAYADSVKGRFTISRDNSKNTLYLQMNSLRAEDTAVYYCARDYFGSSYWYFDVWGQGTLVTVSS VL: DIVMTQSPDSLAVSLGERATINCTASQSVYSSKHNKHYLAWYQQKPGQPPKLLIYGASNPYIGVPDRFSGSGSGTDFTLTISSLQAEDVAVYYCAQFYSYPLTFGGGTKVEIK
1.04

What does the record list as OD450 for PcOxP_DB02_A10 (scFv, V domains shown, scFv in periplasmic extract) VH: EVQLLESGGGLVQPGGSLRLSCAASGFAFSDFYMEWVRQAPGKGLEWVAASRNKANDYTTEYADSVKGRFTISRDNSKNTLYLQMNSLRAEDTAVYYCARDYYGSSYWYFDVWGQGTLVTVSS VL: DIQMTQSPSSLSASVGDRVTITCTASESLYSSKHKVHYLAWYQQKPGKAPKLLIYGASNRQSGVPSRFSGSGSGTDFTLTISSLQPEDFATYYCAQFYAYPLTFGGGTKVEIK ?
0.9

Would you kindly share the measured OD450 for PcOxP_DB02_D09 (scFv, V domains shown, scFv in periplasmic extract) VH: EVQLLESGGGLVQPGGSLRLSCAASGFTFSTFYMEWVRQAPGKGLEWVAASRNKANDYTTEYADSVKGRFTISRDNSKNTLYLQMNSLRAEDTAVYYCARDYYGSSYWYFDVWGQGTLVTVSS VL: DIQMTQSPSSLSASVGDRVTITCTASESLYSSKHKVHYLAWYQQKPGKAPKLLIYGASNRYGGVPSRFSGSGSGTDFTLTISSLQPEDFATYYCAQFYEYPLTFGGGTKVEIK ?
0.44

Returns the measured OD450 for the input binder. Input: PcOxP_DB03_H07 (scFv, V domains shown, scFv in periplasmic extract) VH: EVQLLESGGGLVQPGGSLRLSCAASGFTFSDYYMEWVRQAPGKGLEWVAASRNKANDYTTEYADSVKGRFTISRDNSKNTLYLQMNSLRAEDTAVYYCARDYYGSSYWYFDVWGQGTLVTVSS VL: DIQMTQSPSSLSASVGDRVTITCTASESLYSSKHKVHYLAWYQQKPGKAPKLLIYGASNRDIGVPSRFSGSGSGTDFTLTISSLQPEDFATYYCGQFYSYPLTFGGGTKVEIK
1.64

Could you share which OD450 value was measured for PcOxP_DB04_B11 (scFv, V domains shown, scFv in periplasmic extract) VH: EVQLLESGGGLVQPGGSLRLSCAASGDTFSDFYMEWVRQAPGKGLEWVAASRWKANDYTTEYADSVKGRFTISRDNSKNTLYLQMNSLRAEDTAVYYCARDYYGSSYWYFDVWGQGTLVTVSS VL: DIVMTQSPDSLAVSLGERATINCTASESLYSSKHKVHYLAWYQQKPGQPPKLLIYGASNRYIGVPDRFSGSGSGTDFTLTISSLQAEDVAVYYCAQFYSYPLTFGGGTKVEIK ?
0.31

I am curious: what OD450 value has been reported for PcOxP_DB01_B10 (scFv, V domains shown, scFv in periplasmic extract) VH: EVQLLESGGGLVQPGGSLRLSCAASGFTFSDFYMEWVRQAPGKGLEWVAASRNKANDYTTTYADSVKGRFTISRDNSKNTLYLQMNSLRAEDTAVYYCARDYYGSSHWYFDVWGQGTLVTVSS VL: DIVMTQSPDSLAVSLGERATINCTASESLYSSKGKVHYLAWYQQKPGQPPKLLIYGASNRYIGVPDRFSGSGSGTDFTLTISSLQAEDVAVYYCVQFYSYPLTFGGGTKVEIK ?
1.11

Recorded OD450 of PcOxP_DB03_H02 (scFv, V domains shown, scFv in periplasmic extract) VH: EVQLLESGGGLVQPGGSLRLSCAASGFTESDFYMEWVRQAPGKGLEWVAASRNKYNDYTTEYADSVKGRFTISRDNSKNTLYLQMNSLRAEDTAVYYCARDYYGSSYWYFDVWGQGTLVTVSS VL: DIVMTQSPDSLAVSLGERATINCTASESLYSSKHKVHYLAWYQQKPGQPPKLLIYGAQNRYIGVPDRFSGSGSGTDFTLTISSLQAEDVAVYYCAQFYSYPLTFGGGTKVEIK , please.
1.69

Form field: reported OD450 of PcOxP_DB02_C06 (scFv, V domains shown, scFv in periplasmic extract) VH: EVQLLESGGGLVQPGGSLRLSCAASGFTFSDAYMEWVRQAPGKGLEWVAASRNKANDYTTEYADSVKGRFTISRDNSKNTLYLQMNSLRAEDTAVYYCARDYYGSSYWYFDVWGQGTLVTVSS VL: DIQMTQSPSSLSASVGDRVTITCTASEWLYSSKHKVHYLAWYQQKPGKAPKLLIYGASNRNIGVPSRFSGSGSGTDFTLTISSLQPEDFATYYCAQFYYYPLTFGGGTKVEIK
1.03

What value of measured OD450 is listed for PcOxP_DB03_B12 (scFv, V domains shown, scFv in periplasmic extract) VH: EVQLLESGGGLVQPGGSLRLSCAASGFQFSDFYMEWVRQAPGKGLEWVAASRWKANDYTTEYADSVKGRFTISRDNSKNTLYLQMNSLRAEDTAVYYCARDYYGSSYWYFDVWGQGTLVTVSS VL: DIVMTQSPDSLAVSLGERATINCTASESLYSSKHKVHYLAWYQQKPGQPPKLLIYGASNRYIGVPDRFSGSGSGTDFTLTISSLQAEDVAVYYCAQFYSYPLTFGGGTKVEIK ?
0.85

Which OD450 value belongs to PcOxP_DB02_H05 (scFv, V domains shown, scFv in periplasmic extract) VH: EVQLLESGGGLVQPGGSLRLSCAASGFTFSDFYMEWVRQAPGKGLEWVAASRNKANDYTTEYADSVKGRFTISRDNSKNTLYLQMNSLRAEDTAVYYCARDYYGSSYWYFDPWGQGTLVTVSS VL: DIVMTQSPDSLAVSLGERATINCTASESLYSSKHKVHYLAWYQQKPGQPPKLLIYGASNRYLGVPDRFSGSGSGTDFTLTISSLQAEDVAVYYCAQFYSYPLTFGGGTKVEIK ?
0.44

Data provenance: patent US20250320312A1
